Data provenance is the supplement of paper PMC10065799.

- Tested on: Fer (mouse)
- Measurement Notes: phosphorylation enrichment, bacterial display (enrichment ratio); higher = better substrate or ligand; peptides without Tyr show the background
The entries below are paired with their reported phosphorylation enrichment.

>  <Sequence Text>
YADGVYQALEE [DUOX2_Y70]

>  <System Tested>
Fer (mouse)

>  <phosphorylation enrichment>
1.55

$$$$
>  <Sequence Text>
TLQRMYGCDVG [HLA-B_Y123_S121R]

>  <System Tested>
Fer (mouse)

>  <phosphorylation enrichment>
0.542

$$$$
>  <Sequence Text>
LDTIQYSKHPP [SQSTM1_Y433]

>  <System Tested>
Fer (mouse)

>  <phosphorylation enrichment>
0.583

$$$$
>  <Sequence Text>
TLLERYGMTKI [ACSF3_Y355_E359K]

>  <System Tested>
Fer (mouse);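 further: frequency after pTyr selection over input frequency; kinase dosed for 20-30% of maximal phosphorylation in three min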

>  <phosphorylation enrichment>
0.374

$$$$
>  <Sequence Text>
GFCSWYRGWAP [TIMP3_Y195_YF]

>  <System Tested>
Fer (mouse);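 further: frequency after pTyr selection over input frequency; kinase dosed for 20-30% of maximal phosphorylation in three min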

>  <phosphorylation enrichment>
0.593

$$$$
>  <Sequence Text>
LQKNIYSEELR [LMNA_Y211_F206L]

>  <System Tested>
Fer (mouse);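 further: frequency after pTyr selection over input frequency; kinase dosed for 20-30% of maximal phosphorylation in three min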

>  <phosphorylation enrichment>
0.61

$$$$
>  <Sequence Text>
GAVDTYCRHNY [HLA-DRB1_Y107_A102G]

>  <System Tested>
Fer (mouse);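 further: 11-residue human phosphosite peptides and single-mutation variants displayed on the E. coli surface, counted by deep sequencing, each peptide's frequency after selection divided by its frequency in the unselected input library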;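 further: frequency after pTyr selection over input frequency; kinase dosed for 20-30% of maximal phosphorylation in three min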

>  <phosphorylation enrichment>
0.374

$$$$
